meta.source: patent US20240376185A1

TESTED_TARGET: tetanus neurotoxin (TeNT), authentic tetanus holotoxin (Clostridium tetani, UniProt P04958 2-1315)
Sequence (P04958 2-457 limits assumed, chain 1 of 2): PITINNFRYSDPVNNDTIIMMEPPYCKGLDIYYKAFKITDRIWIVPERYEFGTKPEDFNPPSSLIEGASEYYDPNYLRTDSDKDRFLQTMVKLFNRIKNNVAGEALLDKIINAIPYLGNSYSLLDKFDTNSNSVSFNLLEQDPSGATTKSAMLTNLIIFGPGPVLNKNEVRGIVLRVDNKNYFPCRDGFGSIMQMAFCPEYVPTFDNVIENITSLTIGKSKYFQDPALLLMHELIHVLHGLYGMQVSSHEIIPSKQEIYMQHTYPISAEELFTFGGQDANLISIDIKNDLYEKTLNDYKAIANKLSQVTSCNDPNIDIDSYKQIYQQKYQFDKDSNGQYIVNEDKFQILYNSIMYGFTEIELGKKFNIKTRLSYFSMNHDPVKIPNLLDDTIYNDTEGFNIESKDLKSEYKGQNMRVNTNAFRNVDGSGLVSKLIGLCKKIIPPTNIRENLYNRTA
Sequence (P04958 458-1315 limits assumed, chain 2 of 2): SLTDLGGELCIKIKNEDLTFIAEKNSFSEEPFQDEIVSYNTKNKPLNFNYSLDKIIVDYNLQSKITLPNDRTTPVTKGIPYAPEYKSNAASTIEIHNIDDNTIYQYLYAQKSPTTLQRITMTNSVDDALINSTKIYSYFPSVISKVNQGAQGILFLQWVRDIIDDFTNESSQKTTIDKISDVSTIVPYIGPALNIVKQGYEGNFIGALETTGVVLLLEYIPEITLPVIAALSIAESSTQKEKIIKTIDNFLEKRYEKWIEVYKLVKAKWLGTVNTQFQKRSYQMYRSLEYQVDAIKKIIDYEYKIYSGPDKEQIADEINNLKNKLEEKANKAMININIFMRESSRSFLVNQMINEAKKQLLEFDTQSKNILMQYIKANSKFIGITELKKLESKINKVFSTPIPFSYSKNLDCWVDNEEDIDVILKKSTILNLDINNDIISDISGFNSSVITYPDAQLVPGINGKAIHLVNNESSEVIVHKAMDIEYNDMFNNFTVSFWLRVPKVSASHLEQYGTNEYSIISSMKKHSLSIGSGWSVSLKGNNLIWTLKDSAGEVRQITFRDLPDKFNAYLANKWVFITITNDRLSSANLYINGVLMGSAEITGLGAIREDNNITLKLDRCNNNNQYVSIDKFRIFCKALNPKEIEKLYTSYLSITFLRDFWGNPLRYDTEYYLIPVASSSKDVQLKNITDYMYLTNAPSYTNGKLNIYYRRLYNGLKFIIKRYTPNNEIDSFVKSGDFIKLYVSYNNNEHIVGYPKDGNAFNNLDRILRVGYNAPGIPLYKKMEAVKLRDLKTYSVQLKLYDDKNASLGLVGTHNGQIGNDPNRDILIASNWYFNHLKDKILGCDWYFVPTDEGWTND
TEST_METHOD_NOTES: ELISA: directly coated TeNT, goat anti-llama Ig PO
PROPERTY: Effective SDA Concentration at A450 0.15 (ng/mL)
// return numeric value only (unit: ng/mL, not printed)

>>> reported_measurement("SVT15-3FW4M-GS2-SVA12M2-H6 (bispecific antibody) QVQLQESGGGLVQTGGSLRLSCRASGRAFANYHFGWFRQAPGKDREFVASISWKGGSTYYANFALGRFTSSVDRAESSVYLQMSGLTPEDTATYYCAAHDGGDWNYHTGMDYWGQGTQVTVSSGGGGSGGGSEVQLVESGGGLVQAGGSLRLSCAASGRTFSYYPMAWFRQAPGQEREFVAAIIGADTTYYADSLKGRFTISRDNAKNMVYLQMNSLKPEDTAVYYCAARNTYWSDVYYREGQYTNWGQGTQVTVSSHHHHHH")
2

QUERY: Give its Effective SDA Concentration at A450 0.15 value. Item: SVT06-GS2-SVA12M2-H6 (bispecific antibody) QVQLQESGGGSVQAGGSLRLSCTASELSYDDYTIAWFRRAAGEGRVEDGEGVASITKSYDRAYDNKINYGHSVKGRFTISRDNAKNTVYLQMTDLLPSDTAVYYCALDITPPGGVGASLTEGFLFDYWGQGTQVTVSSGGGGSGGGSEVQLVESGGGLVQAGGSLRLSCAASGRTFSYYPMAWFRQAPGQEREFVAAIIGADTTYYADSLKGRFTISRDNAKNMVYLQMNSLKPEDTAVYYCAARNTYWSDVYYREGQYTNWGQGTQVTVSSHHHHHH
RESULT: 1.1
